Hello, the source for this data is patent US11254686B1, in case you need it.

- Subject of test: adenosine A1 receptor (Homo sapiens (Human))
- Sequence (P30542 whole entry): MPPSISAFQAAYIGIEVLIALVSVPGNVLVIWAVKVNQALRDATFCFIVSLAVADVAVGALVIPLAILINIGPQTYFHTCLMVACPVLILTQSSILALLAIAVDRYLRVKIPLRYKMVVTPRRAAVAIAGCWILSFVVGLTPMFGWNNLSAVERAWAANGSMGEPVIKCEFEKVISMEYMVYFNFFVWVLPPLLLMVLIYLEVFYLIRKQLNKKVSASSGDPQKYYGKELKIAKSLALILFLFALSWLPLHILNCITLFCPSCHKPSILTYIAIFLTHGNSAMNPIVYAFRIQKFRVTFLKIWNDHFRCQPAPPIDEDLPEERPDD
- Test method notes: Adenosine receptor activity assay (Table 1), A1 cAMP
- Assay type: biochemical
pIC50: −log10 of the molar value.
Measured endpoint: pIC50

compound=C[C@H](Nc1nc(C(=O)N2CC(C(=O)NOC(C)(C)C)C2)c2sccc2n1)c1cncc(F)c1 subject_of_test="adenosine A1 receptor (Homo sapiens (Human))" measured_endpoint=pIC50 test_value="< 6.30"
compound=CNC(=O)N1CCN(C(=O)c2nc(N[C@@H](C)c3cncc(F)c3)nc3ccsc23)C1 subject_of_test="adenosine A1 receptor (Homo sapiens (Human))" measured_endpoint=pIC50 test_value="< 6.30"
compound=Cc1cc2nc(N[C@@H](C)c3cncc(F)c3)nc(C(=O)N3CC(CS(C)(=O)=O)C3)c2s1 subject_of_test="adenosine A1 receptor (Homo sapiens (Human))" measured_endpoint=pIC50 test_value="< 6.30"
compound="Cc1cc2nc(N[C@@H](C)c3cncc(F)c3)nc(C(=O)N3CC(NC(=O)C4CCOC4)C3)c2s1 (stereo partly shown)" subject_of_test="adenosine A1 receptor (Homo sapiens (Human))" measured_endpoint=pIC50 test_value="< 6.30"
compound=Cc1cc2nc(N[C@@H](C)c3cncc(F)c3)nc(C(=O)N3CC(NC(=O)C4CC4)C3)c2s1 subject_of_test="adenosine A1 receptor (Homo sapiens (Human))" measured_endpoint=pIC50 test_value="< 6.30"
compound=Cc1cc2nc(N[C@@H](C)c3cncc(F)c3)nc(C(=O)N3CC(N(C)C(=O)CC(C)(C)C)C3)c2s1 subject_of_test="adenosine A1 receptor (Homo sapiens (Human))" measured_endpoint=pIC50 test_value="< 6.30"
compound=Cc1cc2nc(N[C@@H](C)c3cncc(F)c3)nc(C(=O)NCC[C@H]3CCNC3)c2s1 subject_of_test="adenosine A1 receptor (Homo sapiens (Human))" measured_endpoint=pIC50 test_value="< 6.30"
compound=COC[C@@H]1CCN(C(=O)c2nc(N[C@@H](C)c3ccccn3)nc3cc(C)sc23)C1 subject_of_test="adenosine A1 receptor (Homo sapiens (Human))" measured_endpoint=pIC50 test_value="< 6.30"
compound=COC[C@@H](Nc1nc(C(=O)NCCc2ccc(O)cc2)c2sccc2n1)c1cccnc1 subject_of_test="adenosine A1 receptor (Homo sapiens (Human))" measured_endpoint=pIC50 test_value="< 6.30"
compound=Cc1csc2c(C(=O)NCc3ccccn3)nc(N[C@@H](C)c3ccccn3)nc12 subject_of_test="adenosine A1 receptor (Homo sapiens (Human))" measured_endpoint=pIC50 test_value="7.00 to 7.30"
compound=Cc1cc2nc(N[C@@H](C)c3cncc(F)c3)nc(C(=O)N3CC(CO)C3)c2s1 subject_of_test="adenosine A1 receptor (Homo sapiens (Human))" measured_endpoint=pIC50 test_value="< 6.30"
compound=C[C@H](Nc1nc(C(=O)N[C@@H]2CC[C@H](O)C2)c2sccc2n1)c1cncc(F)c1 subject_of_test="adenosine A1 receptor (Homo sapiens (Human))" measured_endpoint=pIC50 test_value="6.30 to 7.00"
compound=Cc1cc2nc(N[C@@H](C)c3cncc(F)c3)nc(C(=O)N3CC[C@@H](NC(=O)OCc4ccccc4)C3)c2s1 subject_of_test="adenosine A1 receptor (Homo sapiens (Human))" measured_endpoint=pIC50 test_value="< 6.30"
compound=Cc1cc2nc(N[C@@H](C)c3ccccn3)nc(C(=O)NCc3cccnc3)c2s1 subject_of_test="adenosine A1 receptor (Homo sapiens (Human))" measured_endpoint=pIC50 test_value="< 6.30"
compound=Cc1cc2nc(N[C@@H](C)c3cncc(F)c3)nc(C(=O)N3CC(NC(=O)CNC(=O)c4ccccc4)C3)c2s1 subject_of_test="adenosine A1 receptor (Homo sapiens (Human))" measured_endpoint=pIC50 test_value="< 6.30"
compound=CNC1CN(C(=O)c2nc(N[C@@H](C)c3cncc(F)c3)nc3cc(C)sc23)C1 subject_of_test="adenosine A1 receptor (Homo sapiens (Human))" measured_endpoint=pIC50 test_value="< 6.30"
compound=COc1ccc([C@H](C)Nc2nc(C(=O)NCc3cccnc3)c3sccc3n2)cc1 subject_of_test="adenosine A1 receptor (Homo sapiens (Human))" measured_endpoint=pIC50 test_value="6.30 to 7.00"
compound=Cc1csc2c(C(=O)N3CCC3)nc(N[C@@H](C)c3cncc(F)c3)nc12 subject_of_test="adenosine A1 receptor (Homo sapiens (Human))" measured_endpoint=pIC50 test_value="7.00 to 7.30"
compound=Cc1csc2c(C(=O)NCc3cccnc3)nc(N[C@@H](C)c3ccccn3)nc12 subject_of_test="adenosine A1 receptor (Homo sapiens (Human))" measured_endpoint=pIC50 test_value="< 6.30"
compound=Cc1cc2nc(N[C@@H](C)c3cncc(F)c3)nc(C(=O)N3CC[C@H](N)C3)c2s1 subject_of_test="adenosine A1 receptor (Homo sapiens (Human))" measured_endpoint=pIC50 test_value="< 6.30"
compound=Cc1csc2c(C(=O)N3CC(NC(=O)C(C)(C)C)C3)nc(N[C@@H](C)c3ccccn3)nc12 subject_of_test="adenosine A1 receptor (Homo sapiens (Human))" measured_endpoint=pIC50 test_value="< 6.30"
compound=COc1ccc(CNC(=O)c2nc(N[C@@H](C)c3ccccn3)nc3cc(C)sc23)cc1 subject_of_test="adenosine A1 receptor (Homo sapiens (Human))" measured_endpoint=pIC50 test_value="7.00 to 7.30"
compound=CC(C)C(=O)NCC1CN(C(=O)c2nc(N[C@@H](C)c3cncc(F)c3)nc3ccsc23)C1 subject_of_test="adenosine A1 receptor (Homo sapiens (Human))" measured_endpoint=pIC50 test_value="< 6.30"
compound="C[C@H](Nc1nc(C(=O)N2CCC(C(=O)NOC(C)(C)C)C2)c2sccc2n1)c1cncc(F)c1 (stereo partly shown)" subject_of_test="adenosine A1 receptor (Homo sapiens (Human))" measured_endpoint=pIC50 test_value="< 6.30"
compound=CNC(=O)NCC1CN(C(=O)c2nc(N[C@@H](C)c3cncc(F)c3)nc3ccsc23)C1 subject_of_test="adenosine A1 receptor (Homo sapiens (Human))" measured_endpoint=pIC50 test_value="< 6.30"
compound=COc1cccc(CCNC(=O)c2nc(N[C@@H](C)c3cncc(F)c3)nc3ccsc23)n1 subject_of_test="adenosine A1 receptor (Homo sapiens (Human))" measured_endpoint=pIC50 test_value="< 6.30"
compound=Cc1cc2nc(N[C@@H](C)c3ccccn3)nc(C(=O)N3CC(C(=O)OC(C)(C)C)C3)c2s1 subject_of_test="adenosine A1 receptor (Homo sapiens (Human))" measured_endpoint=pIC50 test_value="< 6.30"
compound=Cc1cc2nc(N[C@@H](C)c3cncc(F)c3)nc(C(=O)NCCC3CCN(C)CC3)c2s1 subject_of_test="adenosine A1 receptor (Homo sapiens (Human))" measured_endpoint=pIC50 test_value="< 6.30"
compound="CCNC(=O)C1CCN(C(=O)c2nc(N[C@@H](C)c3cncc(F)c3)nc3ccsc23)C1 (stereo partly shown)" subject_of_test="adenosine A1 receptor (Homo sapiens (Human))" measured_endpoint=pIC50 test_value="< 6.30"
compound=CCNC(=O)c1ccc(CCNC(=O)c2nc(N[C@@H](C)c3cncc(F)c3)nc3cc(C)sc23)cc1 subject_of_test="adenosine A1 receptor (Homo sapiens (Human))" measured_endpoint=pIC50 test_value="< 6.30"
compound=COc1cccc(CNC(=O)c2nc(N[C@@H](C)c3ccccn3)nc3c(C)csc23)n1 subject_of_test="adenosine A1 receptor (Homo sapiens (Human))" measured_endpoint=pIC50 test_value="< 6.30"

---

- Test method notes: Hepatocyte (Hep) intrinsic clearance, dog
- Assay type: in vitro ADME
- Assay conditions: hepatocytes
Measured endpoint: hepatocyte CLint

compound="C[C@H](Nc1nc(C(=O)N2CC[C@H](O)C2)c2sccc2n1)c1ccccn1 [Example Z58]" test_value="1.73 µL/min/1e6 cells"
compound="C[C@H](Nc1nc(C(=O)N2CC[C@H](O)C2)c2sccc2n1)c1cccnc1 [Example Z28]" test_value="2.59 µL/min/1e6 cells"
compound="C[C@H](Nc1nc(C(=O)N2CC[C@@H](F)C2)c2sccc2n1)c1ccccn1 [Example Z52]" test_value="41.7 µL/min/1e6 cells"
compound="C[C@H](Nc1nc(C(=O)N2CC[C@@H](O)C2)c2sccc2n1)c1ccccn1 [Example Z59]" test_value="4.19 µL/min/1e6 cells"
compound="C[C@H](Nc1nc(C(=O)N2CCCC2)c2sccc2n1)c1ccccn1 [Example Z10]" test_value="46.1 µL/min/1e6 cells"

---

- Subject of test: UniProt P30542
- Test method notes: Adenosine receptor activity assay (Table 1), A1 cAMP
- Assay type: cell-based
Below: a set of entries, each annotated with reported IC50.
Measured endpoint: IC50

molecule_smiles=C[C@H](Nc1nc(C(=O)N2CC[C@@H](O)C2)c2sc(C(F)(F)F)cc2n1)c1cncc(F)c1 test_value="> 500 nM"
molecule_smiles=CC(C)(C)OC(=O)N[C@@H]1CCN(C(=O)c2nc(NCc3cncc(F)c3)nc3ccsc23)C1 test_value="> 500 nM"
molecule_smiles=Cc1cc2nc(N[C@@H](C)c3ccccn3)nc(C(=O)NCCO)c2s1 test_value="50 to 100 nM"
molecule_smiles=C[C@H](Nc1nc(C(=O)NCCc2ccc(CO)cc2)c2sccc2n1)c1cncc(F)c1 test_value="50 to 100 nM"
molecule_smiles=C[C@H](Nc1nc(C(=O)NCCO)c2sccc2n1)c1cncc(Cl)c1 test_value="50 to 100 nM"
molecule_smiles=CNc1cc2nc(N[C@@H](C)c3cncc(F)c3)nc(C(=O)N3CCC3)c2s1 test_value="> 500 nM"
molecule_smiles=C[C@H](O)CNC(=O)c1nc(N[C@@H](C)c2cncc(F)c2)nc2cc(C(F)(F)F)sc12 test_value="50 to 100 nM"
molecule_smiles=Cc1cc2nc(N[C@@H](C)c3cncc(F)c3)nc(C(=O)NCC(F)(F)F)c2s1 test_value="10 to 50 nM"
